# System under test: Parkin ligase (Homo sapiens, UniProt O60260)
# Sequence (O60260 whole entry): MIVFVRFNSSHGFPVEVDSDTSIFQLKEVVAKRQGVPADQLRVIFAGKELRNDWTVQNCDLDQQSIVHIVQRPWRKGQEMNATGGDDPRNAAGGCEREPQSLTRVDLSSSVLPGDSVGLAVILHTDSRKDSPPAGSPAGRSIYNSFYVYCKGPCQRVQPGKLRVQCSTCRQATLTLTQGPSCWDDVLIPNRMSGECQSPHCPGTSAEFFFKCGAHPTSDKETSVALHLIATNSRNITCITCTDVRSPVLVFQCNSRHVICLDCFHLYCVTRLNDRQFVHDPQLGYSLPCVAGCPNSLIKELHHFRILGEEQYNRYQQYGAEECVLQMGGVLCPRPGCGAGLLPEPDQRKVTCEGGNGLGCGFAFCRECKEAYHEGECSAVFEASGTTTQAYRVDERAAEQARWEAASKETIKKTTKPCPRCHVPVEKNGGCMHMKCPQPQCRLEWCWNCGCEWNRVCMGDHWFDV
# Assay method text: Activity-Based Probe Assay using Ubiquitin vinyl sulfone probe (TR-FRET)
# Format: biochemical
# Particulars: heat activated Parkin, HA-Ub-VS probe, activation EC50; read-out: Probe Assay EC50 (μM) [Example 2]
Mark condition met only for EC50 values smaller than 4 µM; exact matches and larger values are condition not met.

Example results:
Cc1ccccc1C(=O)Nc1nc(-c2cocn2)nn1-c1ccccc1 [Compound 140]; condition not met
Cc1ccccc1C(=O)Nc1nc(NC(=O)c2ccncc2)nn1-c1ccccc1 [Compound 34]; condition met
Cc1ccccc1C(=O)Nc1nc(NC(=O)C2CNC2)nn1-c1ccccc1 [Compound 43]; condition not met
Cc1ccccc1C(=O)Nc1nc(NCc2ccccc2)nn1-c1ccc(OC(F)(F)F)cc1 [Compound 105]; condition met
Cc1ccccc1C(=O)Nc1nc(NC(=O)c2cccc(N=[N+]=[N-])c2)n(-c2ccc(OC(F)(F)F)cc2)n1 [Compound 79]; condition met
Cc1ccccc1C(=O)Nc1nc(NC(=O)c2ccno2)n(-c2ccccc2)n1 [Compound 7]; condition not met

Lookup: Is EC50 of Cc1ccccc1C(=O)Nc1nc(NCCc2ccccc2)nn1-c1ccccc1 [Compound 91] strictly below 4 µM?
Found: condition met

Lookup: Say whether its EC50 is strictly beneath 4 µM. Entry: Cc1ccccc1C(=O)Nc1nc(-c2ncccc2C)nn1-c1ccc(C(F)(F)F)cc1 [Compound 141]
Found: condition met

Lookup: Please indicate whether the reported EC50 of c1ccc(-n2nc(NCCc3ccccn3)nc2NCCc2ccccn2)cc1 [Compound 145] is strictly below 4 µM.
Found: condition not met

Lookup: Would you kindly verify if EC50 of Cc1ccccc1C(=O)Nc1nc(NC(=O)c2cccnc2)nn1-c1ccc(OC(F)(F)F)cc1 [Compound 86] is strictly less than 4 µM?
Found: condition not met
